# System: VRE12201
# measurement_protocol: MIC, microdilution broth method
# Format: cell-based, Enterococcus faecalis
# condition_info: VRE12201; in µg/mL
measured_property: MIC
Just the number.

Query: Reported MIC, molecule CCn1cc(C(=O)O)c(=O)c2cc(F)c(N3CCN(Cc4ccc(-c5csnn5)cc4)CC3)cc21 : ____
Result: 4

Query: // lookup MIC for O=C(O)c1cn(C2CC2)c2cc(N3CCN(Cc4cccc5ccsc45)CC3)c(F)cc2c1=O
Result: 0.5

Query: I'd like to know its MIC. The molecule in question is O=C(O)c1cn(C2CC2)c2cc(N3CCN(Cc4ccc(-n5cncn5)cc4)CC3)c(F)cc2c1=O
Result: 0.5

Query: Any idea what its MIC is? The molecule is CCn1cc(C(=O)O)c(=O)c2cc(F)c(N3CCN(Cc4cccc5c4CCCC5)CC3)cc21
Result: 2

---

# Tested on: CYP3A
# measurement_protocol: in vitro
# condition_info: human, microsomes, % inhibition, CYP3A inhibition (HLM, testosterone substrate)
measured_property: inhibition at 10 µM

Query: Please tell me: inhibition at 10 µM of C[C@H]1COc2c(N3CC[C@@H](Nc4ncccn4)C3)c(F)cc3c(=O)c(C(=O)O)cn1c23 , system CYP3A?
Result: 6.52%

---

Kindly state MIC for each of the entries shown.
# System: VRE12204
# measurement_protocol: MIC, microdilution broth method
# Assay type: cell-based, Enterococcus faecium
# condition_info: VRE12204; in µg/mL
Output: the number by itself.

Query: Which measured MIC belongs to C[C@H]1COc2c(N3CCN(c4ccncn4)CC3)c(F)cc3c(=O)c(C(=O)O)cn1c23 [ML-83-001] , tested on VRE12204?
Result: 2

Query: Field: MIC (VRE12204). Entry: O=C(O)c1cn(C2CC2)c2cc(N3CCN(Cc4ccc(-n5cncn5)cc4)CC3)c(F)cc2c1=O [Compound 2.36]
Result: 8

Query: Value wanted: MIC (VRE12204) of entry CCn1cc(C(=O)O)c(=O)c2cc(F)c(N3CCN(Cc4cccc5ccccc45)CC3)nc21 [ML-77-025]
Result: 4

Query: Under VRE12204: MIC value of CCn1cc(C(=O)O)c(=O)c2cc(F)c(N3CCN(Cc4ccc(-c5ccccc5)cc4)CC3)cc21 [ML-77-134] ?
Result: 2

Query: Which measured MIC belongs to CCn1cc(C(=O)O)c(=O)c2cc(F)c(N3CCN(Cc4ccc(-n5cccn5)cc4)CC3)cc21 [Compound 3.30] , tested on VRE12204?
Result: 16

---

# Tested on: EMRSA16
# measurement_protocol: MIC, microdilution broth method
# Assay type: cell-based, Staphylococcus aureus
# condition_info: EMRSA16 (Table 16, role of the terminal pyrimidine ring); in µg/mL
Would you kindly list MIC, EMRSA16 for each of these compounds?
No unit in the answer, please; the number alone is enough.

Query: // returns reported MIC, EMRSA16 for input C[C@H]1COc2c(N3CC[C@@H](Nc4cnccn4)C3)c(F)cc3c(=O)c(C(=O)O)cn1c23
Result: 1

Query: MIC, EMRSA16 for C[C@H]1COc2c(N3CC[C@@H](Nc4ncccn4)C3)c(F)cc3c(=O)c(C(=O)O)cn1c23 ?
Result: 1

Query: For C[C@H]1COc2c(N3CC[C@@H](N)C3)c(F)cc3c(=O)c(C(=O)O)cn1c23 , what is its reported MIC, EMRSA16?
Result: 32

Query: Dear colleague, I am looking for the recorded MIC, EMRSA16 of the following compound: C[C@H]1COc2c(N3CC[C@@H](Nc4ncc(F)cn4)C3)c(F)cc3c(=O)c(C(=O)O)cn1c23
Result: 1

---

# Tested on: VRE12204
# measurement_protocol: MIC, microdilution broth method
# Type: cell-based, Enterococcus faecium
# condition_info: ESKAPE panel, Gram-positive; in µg/mL
For each record, write down the corresponding MIC, VRE12204.
Answer using only a numeral; do not append any unit.

Query: Please look up its MIC, VRE12204: C[C@H]1COc2c(N3CC[C@H](Nc4ncccn4)C3)c(F)cc3c(=O)c(C(=O)O)cn1c23 [KSN-L19]
Result: 4

Query: Name the reported MIC, VRE12204 value associated with the molecule C[C@H]1COc2c(N3CC[C@@H](N)C3)c(F)cc3c(=O)c(C(=O)O)cn1c23 [KSN-L44-D]
Result: 1

Query: Given the entry C[C@H]1COc2c(N3CC[C@H](Nc4ncc(N)cn4)C3)c(F)cc3c(=O)c(C(=O)O)cn1c23 [KSN-L62] , report its measured MIC, VRE12204.
Result: 1

Query: Sample C[C@H]1COc2c(N3CC[C@H](Nc4cc(NC5CC5)ncn4)C3)c(F)cc3c(=O)c(C(=O)O)cn1c23 [KSN-L21] — what was its MIC, VRE12204?
Result: 16

Query: # MIC, VRE12204 lookup, item C[C@H]1COc2c(N3CCC(N4CCOCC4)C3)c(F)cc3c(=O)c(C(=O)O)cn1c23 (some centres unmarked) [KSN-L33]
Result: 4

Query: Need MIC, VRE12204, item C[C@H]1COc2c(N3CC[C@@H](Nc4cnccn4)C3)c(F)cc3c(=O)c(C(=O)O)cn1c23 [KSN-BL1]
Result: 0.5

Query: Dear colleague, I am looking for the recorded MIC, VRE12204 of the following molecule: Cc1cc(C)nc(N[C@@H]2CCN(c3c(F)cc4c(=O)c(C(=O)O)cn5c4c3OC[C@@H]5C)C2)n1 [KSN-BL7]
Result: 1

---

# measurement_protocol: Single dose pharmacokinetics study, intravenous route
# condition_info: male, CD-1 (ICR), mouse, in vivo, 5 mg/kg
measured_property: half-life (min)
A number alone suffices; assume min.

Query: Fill in the blank: the reported half-life of C[C@H]1COc2c(N3CC[C@@H](Nc4ncccn4)C3)c(F)cc3c(=O)c(C(=O)O)cn1c23 is ____.
Result: 36

---

# System: EC12923
# measurement_protocol: MIC, microdilution broth method
# Type: cell-based
# condition_info: ESKAPE panel, Gram-negative; in µg/mL
measured_property: MIC, EC12923
Number only, please.

Query: Recall the recorded MIC, EC12923 for C[C@H]1COc2c(N3CCN(c4ncc(F)cn4)CC3)c(F)cc3c(=O)c(C(=O)O)cn1c23 with EC12923 and state it.
Result: 2

Query: Can you look up MIC, EC12923 on EC12923 for C[C@H]1COc2c(N3CC[C@@H](Nc4ncccn4)C3)c(F)cc3c(=O)c(C(=O)O)cn1c23 ?
Result: 0.5

---

# Tested on: VRE12201
# measurement_protocol: MIC, microdilution broth method
# Assay type: cell-based, Enterococcus faecalis
# condition_info: VRE12201; in µg/mL
For each entry below, report its MIC value.
Response field accepts a number only; no unit should be typed.

Query: Quick check: MIC of CCn1cc(C(=O)O)c(=O)c2cc(F)c(N3CCN(Cc4cccc5ccccc45)CC3)nc21 ?
Result: 8

Query: For O=C(O)c1cn(C2CC2)c2cc(N3CCN(Cc4cccc5c4OCO5)CC3)c(F)cc2c1=O , what is its reported MIC?
Result: 1

Query: Given the compound O=C(O)c1cn(C2CC2)c2cc(N3CCN(CCc4cccc5ccccc45)CC3)c(F)cc2c1=O , what is its reported MIC?
Result: 2

Query: Requested read-out: MIC. Entry: CCn1cc(C(=O)O)c(=O)c2cc(F)c(N3CCN(Cc4cccc5ccccc45)CC3)cc21
Result: 4

Query: Dear colleague, I am looking for the recorded MIC of the following compound: CCn1cc(C(=O)O)c(=O)c2cc(F)c(N3CCN(Cc4cc(C)cc(C)c4)CC3)cc21
Result: 8

---

# System: VSE775
# measurement_protocol: MIC, microdilution broth method
# Format: cell-based, Enterococcus faecalis
# condition_info: VSE775; in µg/mL
measured_property: MIC
Give a plain numeric answer without units written out.

Query: State its MIC on VSE775: O=C(O)c1cn(C2CC2)c2cc(N3CCN(Cc4ccc(F)c5ccccc45)CC3)c(F)cc2c1=O [ML-77-048]
Result: 8

Query: Record lookup: for VSE775, what MIC belongs to Cc1cc(N2CCN(c3c(F)cc4c(=O)c(C(=O)O)cn5c4c3OC[C@@H]5C)CC2)nc(C(C)C)n1 [ML-83-011] ?
Result: 1

Query: Notebook: pull reported MIC for VSE775, entry O=C(O)c1cn(C2CC2)c2cc(N3CCN(Cc4ccc(-c5csnn5)cc4)CC3)c(F)cc2c1=O [ML-77-157]
Result: 0.5

---

Would you kindly list MIC for each of these compounds?
# Tested on: VRE12201
# measurement_protocol: MIC, microdilution broth method
# Type: cell-based, Enterococcus faecalis
# condition_info: VRE12201; in µg/mL
A bare number is all that is needed in reply.

Query: Given the compound CCn1cc(C(=O)O)c(=O)c2cc(F)c(N3CCN(Cc4ccccc4)CC3)cc21 [ML-77-047] , what is its reported MIC?
Result: 2

Query: May I ask what MIC has been recorded for CCn1cc(C(=O)O)c(=O)c2cc(F)c(N3CCN(Cc4cccc5c4OCO5)CC3)cc21 [ML-77-035] ?
Result: 4

Query: Find the recorded MIC belonging to C[C@H]1COc2c(N3CCN(c4ccccn4)CC3)c(F)cc3c(=O)c(C(=O)O)cn1c23 [ML-83-0018] and report it.
Result: 0.25

Query: Given the compound O=C(O)c1cn(C2CC2)c2cc(N3CCN(Cc4cccc5ccccc45)CC3)c(F)cc2c1=O [ML-77-005] , what is its reported MIC?
Result: 0.5

Query: Fill blank: measured MIC of the compound CCn1cc(C(=O)O)c(=O)c2cc(F)c(N3CCNCC3)cc21 [Norfloxacin, norfloxacin, reference compound] is ____.
Result: 4
